# TARGET SYSTEM: T1, L1-CAM-His
# T1 construct: recombinant soluble His-tagged antigen immobilised on the CM5 chip; also called antigen L1-CAM-His
# T1 sequence (P32004 20-1120): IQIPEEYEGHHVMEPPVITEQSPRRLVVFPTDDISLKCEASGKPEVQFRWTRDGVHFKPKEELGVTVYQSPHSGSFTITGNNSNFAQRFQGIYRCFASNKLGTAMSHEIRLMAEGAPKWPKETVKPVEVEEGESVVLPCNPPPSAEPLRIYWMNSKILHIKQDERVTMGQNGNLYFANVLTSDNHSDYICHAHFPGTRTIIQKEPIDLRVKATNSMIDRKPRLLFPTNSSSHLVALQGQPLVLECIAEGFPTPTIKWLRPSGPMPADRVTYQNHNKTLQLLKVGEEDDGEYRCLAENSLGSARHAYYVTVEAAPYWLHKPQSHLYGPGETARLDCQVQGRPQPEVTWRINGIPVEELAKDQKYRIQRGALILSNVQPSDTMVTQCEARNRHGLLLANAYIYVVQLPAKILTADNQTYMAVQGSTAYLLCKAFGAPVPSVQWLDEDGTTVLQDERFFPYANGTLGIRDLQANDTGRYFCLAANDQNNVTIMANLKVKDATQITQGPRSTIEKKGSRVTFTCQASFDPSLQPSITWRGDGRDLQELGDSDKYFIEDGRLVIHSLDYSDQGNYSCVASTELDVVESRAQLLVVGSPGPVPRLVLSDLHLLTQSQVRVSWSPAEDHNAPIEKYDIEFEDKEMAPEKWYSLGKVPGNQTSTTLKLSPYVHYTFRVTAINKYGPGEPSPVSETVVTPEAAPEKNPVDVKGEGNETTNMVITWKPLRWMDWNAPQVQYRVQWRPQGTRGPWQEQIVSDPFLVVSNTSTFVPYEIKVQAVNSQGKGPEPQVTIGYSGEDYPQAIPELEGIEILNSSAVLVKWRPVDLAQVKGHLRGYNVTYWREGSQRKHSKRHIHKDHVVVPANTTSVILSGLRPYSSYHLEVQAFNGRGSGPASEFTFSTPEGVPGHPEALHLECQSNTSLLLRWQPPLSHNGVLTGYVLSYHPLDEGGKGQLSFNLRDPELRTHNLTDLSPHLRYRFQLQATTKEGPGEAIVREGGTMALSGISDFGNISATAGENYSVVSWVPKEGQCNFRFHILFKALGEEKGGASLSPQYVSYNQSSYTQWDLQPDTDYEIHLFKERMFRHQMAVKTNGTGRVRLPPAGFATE
# METHOD: SPR (Biacore T100), L1-CAM-His immobilised on CM5 chip
# Method: In Vitro Binding Kinetics by Biacore T-100 Biosensor (GE Healthcare, Uppsala, Sweden). CM5 sensor chip (Research grade) and related reagents were purchased from Biacore USA (Piscataway, NJ). […] The data were analyzed by the bivalent analyte model and default parameter setting for the rate constants using the Biacore T-100 evaluation software, and the apparent association on rate constant (kₒₙ), dissociation off rate constant (koff) and equilibrium dissociation constant (Kd=koff/kₒₙ) were calculated.
Reported Kd values for the following binders.
MEASURED METRIC: Kd (nM)

[
  {
    "BINDER": "E72-H1L1 (antibody, human IgG1, kappa, V domains shown, also called huE72 H1/L1) VH: QVQLVQPGAEVVKPGASVKLSCKASGYTFTGYWMHWVKQAPGQGLEWIGEINPSNGRTNYNERFKSKATLTVDKSITTAFMELSRLRSDDTAVYFCARDYYGTSYNFDYWGQGTLLTVSS VL: DIQMTQSSSSFSVSVGDRVTITCKANEDINNRLAWYQQKPGKSPRLLISGATNLVTGVPSRFSGSGSGTDYTLTISSLQAEDFATYYCQQYWSTPFTFGQGTELEIKR",
    "READOUT NUMBER": 0.114
  },
  {
    "BINDER": "E72-H2L1 (antibody, human IgG1, kappa, V domains shown, also called huE72 H2/L1) VH: QVQLVQPGAEVKKPGASVKLSCKASGYTFTGYWMHWVRQAPGQGLEWIGEINPSNGRTNYNERFKSRATLTVDKSISTAYMELSRLRSDDTAVYFCARDYYGTSYNFDYWGQGTLLTVSS VL: DIQMTQSSSSFSVSVGDRVTITCKANEDINNRLAWYQQKPGKSPRLLISGATNLVTGVPSRFSGSGSGTDYTLTISSLQAEDFATYYCQQYWSTPFTFGQGTELEIKR",
    "READOUT NUMBER": 0.355
  },
  {
    "BINDER": "huE72-IgG1 (huE72 H1/L2) (antibody, V domains shown, Human IgG1; also called humanized E72 IgG1) VH: QVQLVQPGAEVVKPGASVKLSCKASGYTFTGYWMHWVKQAPGQGLEWIGEINPSNGRTNYNERFKSKATLTVDKSITTAFMELSRLRSDDTAVYFCARDYYGTSYNFDYWGQGTLLTVSS VL: DIQMTQSPSSLSVSVGDRVTITCKANEDINNRLAWYQQKPGKAPKLLISGATNLVTGVPSRFSGSGSGTDYTLTISSLQPEDFATYYCQQYWSTPFTFGQGTELEIKR",
    "READOUT NUMBER": 0.27
  },
  {
    "BINDER": "E72-H2L2 (antibody, human IgG1, kappa, V domains shown, also called huE72 H2/L2) VH: QVQLVQPGAEVKKPGASVKLSCKASGYTFTGYWMHWVRQAPGQGLEWIGEINPSNGRTNYNERFKSRATLTVDKSISTAYMELSRLRSDDTAVYFCARDYYGTSYNFDYWGQGTLLTVSS VL: DIQMTQSPSSLSVSVGDRVTITCKANEDINNRLAWYQQKPGKAPKLLISGATNLVTGVPSRFSGSGSGTDYTLTISSLQPEDFATYYCQQYWSTPFTFGQGTELEIKR",
    "READOUT NUMBER": 0.667
  }
]
